System: Staphylococcus aureus
Test: Antibacterial activity against Staphylococcus aureus MTCC 96 after 24 hr by macrodilution tube method
Type: functional
Conditions: MTCC 96, 24 h
Documented MIC across a set of compounds
readout: MIC (µg/mL)

Cc1cc(-c2cn(-c3ccccc3)nc2-c2ccc(Br)cc2)n(-c2ccccc2)n1 : 64
Cc1ccc(-c2nn(-c3ccccc3)cc2-c2cc(C)nn2-c2ccccc2)cc1 : 256
COc1ccc(-c2nn(-c3ccc([N+](=O)[O-])cc3)cc2-c2cc(C)nn2-c2ccccc2)cc1 : 256
Cc1cc(-c2cn(-c3ccccc3)nc2-c2ccc(F)cc2)n(-c2ccccc2)n1 : 128
CC(=O)/C(Br)=C/c1cn(-c2ccccc2)nc1-c1ccc(Br)cc1 : 32
CC(=O)/C(Br)=C/c1cn(-c2ccccc2)nc1-c1ccccc1 : 128
Cc1cc(-c2cn(-c3ccc([N+](=O)[O-])cc3)nc2-c2ccccc2)n(-c2ccccc2)n1 : 256
CC(=O)/C(Br)=C/c1cn(-c2ccc([N+](=O)[O-])cc2)nc1-c1ccc(F)cc1 : 128
CC(=O)/C(Br)=C/c1cn(-c2ccccc2)nc1-c1ccc(F)cc1 : 32
Cc1cc(-c2cn(-c3ccccc3)nc2-c2ccc(Cl)cc2)n(-c2ccccc2)n1 : 256
COc1ccc(-c2nn(-c3ccc([N+](=O)[O-])cc3)cc2/C=C(\Br)C(C)=O)cc1 : 128

----------
Tested on: Bacillus subtilis
Test: Antibacterial activity against Bacillus subtilis MTCC 121 after 24 hr by macrodilution tube method
Type: functional
Conditions: MTCC 121, 24 h
readout: MIC (µg/mL)

CC(=O)/C(Br)=C/c1cn(-c2ccccc2)nc1-c1ccccc1 : 128
Cc1cc(-c2cn(-c3ccccc3)nc2-c2ccc(Br)cc2)n(-c2ccccc2)n1 : 32
Cc1cc(-c2cn(-c3ccccc3)nc2-c2ccc(Cl)cc2)n(-c2ccccc2)n1 : 128
Cc1cc(-c2cn(-c3ccccc3)nc2-c2ccc(F)cc2)n(-c2ccccc2)n1 : 128
CC(=O)/C(Br)=C/c1cn(-c2ccccc2)nc1-c1ccc([N+](=O)[O-])cc1 : 128

----------
System: Bacillus subtilis
Test: Antibacterial activity against Bacillus subtilis MTCC 121 at 2 mg/ml after 24 hr by agar well diffusion method
Type: functional
Conditions: MTCC 121, 24 h, read-out: DIZ
Documented zone of inhibition at 2000 µg/mL across a set of compounds
readout: zone of inhibition at 2000 µg/mL (mm)

CC(=O)/C(Br)=C/c1cn(-c2ccccc2)nc1-c1ccc(Cl)cc1 : 16.3
COc1ccc(-c2nn(-c3ccccc3)cc2/C=C(\Br)C(C)=O)cc1 : 16.3
Cc1cc(-c2cn(-c3ccc([N+](=O)[O-])cc3)nc2-c2ccc(F)cc2)n(-c2ccccc2)n1 : 15.6
CC(=O)/C(Br)=C/c1cn(-c2ccc([N+](=O)[O-])cc2)nc1-c1ccccc1 : 17.3
CC(=O)/C(Br)=C/c1cn(-c2ccccc2)nc1-c1ccc(Br)cc1 : 19.3
CC(=O)/C(Br)=C/c1cn(-c2ccccc2)nc1-c1ccc(F)cc1 : 21.6
Cc1cc(-c2cn(-c3ccccc3)nc2-c2ccccc2)n(-c2ccccc2)n1 : 15.6

----------
Test system: Staphylococcus aureus
Test: Antibacterial activity against Staphylococcus aureus MTCC 96 at 2 mg/ml after 24 hr by agar well diffusion method
Assay type: functional
Details: MTCC 96, 24 h, read-out: DIZ
readout: zone of inhibition at 2000 µg/mL (mm)

COc1ccc(-c2nn(-c3ccccc3)cc2/C=C(\Br)C(C)=O)cc1 : 15.6
CC(=O)/C(Br)=C/c1cn(-c2ccccc2)nc1-c1ccc(C)cc1 : 18.3
CC(=O)/C(Br)=C/c1cn(-c2ccccc2)nc1-c1ccccc1 : 15.3
Cc1cc(-c2cn(-c3ccccc3)nc2-c2ccccc2)n(-c2ccccc2)n1 : 16.3
COc1ccc(-c2nn(-c3ccccc3)cc2-c2cc(C)nn2-c2ccccc2)cc1 : 15.3
CC(=O)/C(Br)=C/c1cn(-c2ccccc2)nc1-c1ccc(Cl)cc1 : 14.6
Cc1cc(-c2cn(-c3ccccc3)nc2-c2ccc(F)cc2)n(-c2ccccc2)n1 : 15
CC(=O)/C(Br)=C/c1cn(-c2ccccc2)nc1-c1ccc([N+](=O)[O-])cc1 : 16
COc1ccc(-c2nn(-c3ccc([N+](=O)[O-])cc3)cc2-c2cc(C)nn2-c2ccccc2)cc1 : 15.3
Cc1cc(-c2cn(-c3ccccc3)nc2-c2ccc([N+](=O)[O-])cc2)n(-c2ccccc2)n1 : 17.6
COc1ccc(-c2nn(-c3ccc([N+](=O)[O-])cc3)cc2/C=C(\Br)C(C)=O)cc1 : 15.6
Cc1cc(-c2cn(-c3ccc([N+](=O)[O-])cc3)nc2-c2ccc(F)cc2)n(-c2ccccc2)n1 : 13.6
Cc1ccc(-c2nn(-c3ccccc3)cc2-c2cc(C)nn2-c2ccccc2)cc1 : 14.6
CC(=O)/C(Br)=C/c1cn(-c2ccccc2)nc1-c1ccc(Br)cc1 : 21.3
Cc1cc(-c2cn(-c3ccccc3)nc2-c2ccc(Br)cc2)n(-c2ccccc2)n1 : 19.3
Cc1cc(-c2cn(-c3ccccc3)nc2-c2ccc(Cl)cc2)n(-c2ccccc2)n1 : 14.3
CC(=O)/C(Br)=C/c1cn(-c2ccccc2)nc1-c1ccc(F)cc1 : 20.6
CC(=O)/C(Br)=C/c1cn(-c2ccc([N+](=O)[O-])cc2)nc1-c1ccccc1 : 19.3
Cc1cc(-c2cn(-c3ccc([N+](=O)[O-])cc3)nc2-c2ccccc2)n(-c2ccccc2)n1 : 13.6
O=C(O)c1cn(C2CC2)c2cc(N3CCNCC3)c(F)cc2c1=O : 26
CC(=O)/C(Br)=C/c1cn(-c2ccc([N+](=O)[O-])cc2)nc1-c1ccc(F)cc1 : 16.6
